Taken from the supplement of paper PMC8728848.

TARGET_OR_TEST_SYSTEM: Fuc(a1-3)[Gal(b1-4)]GlcNAc
TEST: glycan array binding signal (z-score within array); higher = stronger binding
REPORTED_CONDITIONS: glycan notation: IUPAC condensed, linker removed
The sample as a whole holds a higher share of the strongest signals than the screen did.
PROPERTY_MEASURED: glycan array binding signal (z-score)

BINDER: CCL2 (Coprinopsis cinerea), B3GA02 (protein) MDSPAVTLSAGNYIIYNRVLSPRGEKLALTYPGRQRTPVTVSPLDGSSEQAWILRSYDSNSNTWTISPVGSPNSQIGWGAGNVPVVLPPNNYVWTLTLTSGGYNIQDGKRTVSWSLNNATAGEEVSIGADATFSGRWVIEKV
PROPERTY_MEASURED: glycan array binding signal (z-score)
RESULT: 0.752
//
BINDER: CLECb-Precomplexed (Mus musculus), P43025 (protein) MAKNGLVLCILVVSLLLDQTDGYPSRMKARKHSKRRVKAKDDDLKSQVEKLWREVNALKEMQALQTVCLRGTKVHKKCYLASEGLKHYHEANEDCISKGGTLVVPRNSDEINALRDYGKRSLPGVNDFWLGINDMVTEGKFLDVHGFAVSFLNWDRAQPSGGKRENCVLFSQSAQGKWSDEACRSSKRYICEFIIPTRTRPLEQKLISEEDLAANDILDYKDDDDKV
PROPERTY_MEASURED: glycan array binding signal (z-score)
RESULT: 0.129
//
BINDER: CM2 (Cordyceps militaris) (protein) MEIAEQNVGKSCAIVNLIPPKEGSNIWTAKQVTIARNLPPNRGTGRHQIDWSFGPVKVTGYVDTTNWEIGVTVSIMGIDLGTVYGNLRDGVVLNVDLFLAKGQVRFYLKNGNEVWVHLSVEIRFDGKFEGDYKIITV
PROPERTY_MEASURED: glycan array binding signal (z-score)
RESULT: 0.057
